Some molecules, each annotated with its measured melting point.
experimental-readout: melting point

>>> result("CC1=Nc2ccc(F)c(F)c2OC1")
"51.2 °C"
>>> result("CCOC(=O)C=CC(=S)c1ccc(-c2ccccc2)cc1")
"74 to 75 °C"
>>> result("OC1C(COC2CC2)OC(n2cnc3c(NC4CCCC4)nc(Cl)nc32)C1O (stereo unspecified)")
"104 to 106 °C"
>>> result("CS(=O)(=O)c1ncc2n1-c1ccc(Cl)cc1C(c1ccccc1F)=[N+]([O-])C2")
"219 to 220 °C"
>>> result("Cc1cc(C)cc(Oc2nc(Cl)nc(Cl)c2C(C)C)c1")
"107 to 108 °C"
>>> result("CC(C)(CCn1ccnc1)NCC(O)c1ccc(O)c(CO)c1 (stereo unspecified)")
"135 to 137 °C"
>>> result("CNc1nnc(SCc2ccccc2)s1")
"87 to 89 °C"
>>> result("Cc1ccc(S(=O)(=O)c2nc(C(N)=O)n[nH]2)cc1")
"148 to 150 °C"
>>> result("Cc1cc(OC(F)F)c([N+](=O)[O-])cc1S(=O)(=O)N(C)C")
"125 to 126 °C"
>>> result("CC(=O)Oc1ccc(C(=O)c2ccc(OC(C)=O)cc2)cc1")
"120 to 122 °C"
>>> result("FC(F)(F)c1cc2ccccc2[nH]1")
"102 °C"

###

Measured melting point of individual entries
experimental-readout: melting point

>>> result("CC(C)(C)c1cc(C(=O)OCc2ccccc2)cc(C(C)(C)C)c1O")
"80 to 83 °C"
>>> result("Cc1ccc(-n2nc(C(C)(C)C)cc2NC(=O)Nc2ccc(N(C)c3ccncc3)c3ccccc23)cc1")
"174 to 177 °C"
>>> result("Cc1c(C)c2c(c(C)c1NC(=O)c1ccc(F)cc1)C(c1ccc(F)cc1)C(C)(C)O2 (stereo unspecified)")
"140 to 142 °C"
>>> result("CC(=O)c1cc2c(s1)C(=O)c1ccsc1C2=O")
"223 to 225 °C"
>>> result("CN(C)C1(c2cccc(F)c2)CCC(=O)CC1")
"83 to 88 °C"
>>> result("CC(=O)NCC1CCC(Nc2nc3c(s2)CCCc2ccc(F)cc2-3)CC1 (stereo unspecified)")
"88 to 91 °C"
>>> result("CC(C)(C)c1cccc(CC(O)CO)c1OCc1ccccc1 (stereo unspecified)")
"79 to 81 °C"
>>> result("COC(=O)c1cc(NC(=O)Nc2ccc([N+](=O)[O-])cc2)cc(C(=O)OC)c1")
"193 to 195 °C"
>>> result("CCON=C(CC)C1=C(O)CC(c2cc3c(cc2[N+](=O)[O-])OCO3)CC1=O (stereo unspecified)")
"122 °C"
>>> result("Nc1nc(SCc2nc(C3CC3)no2)ncc1Cc1ccccc1")
"94 °C"
>>> result("CCc1noc(C)c1-c1[nH]c2ccccc2c1C(=O)CCN(C)C")
"146 to 148 °C"
>>> result("CCCN(Sc1nc2ccccc2s1)C(C)(C)C")
"55 to 56 °C"
>>> result("CCCOc1ccc2[nH]c(-c3cc(C)c(O)c(C)c3)c(C)c2c1")
"124 °C"
>>> result("COc1ccc(-c2ccncc2OC2SCC(OC(C)=O)C(OC(C)=O)C2OC(C)=O)cc1 (stereo unspecified)")
"193 °C"
>>> result("NC(=O)[C@@H]1[C@H](Nc2ccnc3[nH]c(-c4ccc(CN5CCOCC5)cc4)nc23)[C@H]2C=C[C@@H]1C2")
"240 to 244 °C"
>>> result("COC(=O)c1ccccc1NN=Cc1ccccc1")
"66.5 to 67.5 °C"
>>> result("Cc1csc2[nH]c(=O)n(Cc3ccc(Br)cc3F)c(=O)c12")
"296 to 298 °C"
>>> result("CNC(=O)C1(N2C(=O)c3cccc(NC(C)=O)c3C2=O)CCCCC1")
"205 to 208 °C"
>>> result("CCOc1ccc(C2=NN(C3CCN(C(=O)Nc4ccccc4)CC3)C(=O)[C@@H]3CC=CC[C@H]23)cc1OCC")
"109 to 112 °C"
>>> result("N#CC(N)C(=O)c1ccc(C=O)cc1 (stereo unspecified)")
"122 to 125 °C"
>>> result("Clc1cn2ccnc2c(Br)n1")
"146 to 147 °C"
>>> result("CC(C)(Oc1ccc(CC(=O)Nc2cc(Cl)cc(Cl)c2)cc1)C(=O)O")
"138 °C"
>>> result("CCCNc1nc(C#N)c(C#N)nc1-c1ccccc1")
"136 to 137 °C"
>>> result("CNC(=O)c1ccc(NC(=O)Oc2ccccc2)cc1")
"190 to 192 °C"
>>> result("CC(=O)NNC(=N)C(Cl)(Cl)Cl")
"130 to 132 °C"
>>> result("CC(C)(C(=O)c1ccc(S)cc1)N1CCOCC1")
"68 to 69 °C"
